Tested on: Velvetleaf (VELE)
Format: in vivo, Abutilon theophrasti
Conditions: Antidote 4.48 + Biocide No. 1 8.96 Kg/Ha PPI, Herb. No. 8 0.07; 5 DAP, before herbicide application
Provide the recorded % Inhibition 5 DAP VELE for the entries that follow.
Give bare numbers, in %.

Some compounds with recorded % Inhibition 5 DAP VELE:
{"compound": "C=CCC(C)(C#N)Sc1ccc(C)cc1 (stereo not drawn)", "endpoint": "% Inhibition 5 DAP VELE", "obs_value": 0}
{"compound": "CCOC(=O)c1cnoc1-c1ccc(Cl)cc1Cl", "endpoint": "% Inhibition 5 DAP VELE", "obs_value": 75}
{"compound": "C=CCN(CC=C)C(=O)C(Cl)Cl", "endpoint": "% Inhibition 5 DAP VELE", "obs_value": 0}
{"compound": "CC1(C)OC(c2ccco2)CN1C(=O)C(Cl)Cl (stereo not drawn)", "endpoint": "% Inhibition 5 DAP VELE", "obs_value": 0}
{"compound": "C=CCSC(=S)N(C)c1ccccc1", "endpoint": "% Inhibition 5 DAP VELE", "obs_value": 0}

Lab note: each compound below needs its % Inhibition 5 DAP VELE filled in.
1. Clc1cc(Cl)nc(-c2ccccc2)n1
2. CC1CN(C(=O)C(Cl)Cl)C(C)(C)O1 (stereo not drawn)
3. COC(=O)COC(c1ccccc1)c1ccccc1

Reply |
1. 0
2. 10
3. 25

The recorded % Inhibition 5 DAP VELE for N#CCOc1ccc(Cl)c2cccnc12 is 50

###

Test system: Corn
Assay: Greenhouse test Procedure VII: biocide and antidote in furrow, herbicide POE (Examples 39-42, 48-50, 56-58; Tables 38-41, 47-49, 55-57)
Type: in vivo
Conditions: C (COUNTER) + antidote in furrow, C:A Ratio 160; ACCENT 0.56 Kg/Ha POE
endpoint: % Inhibition Corn (%)
One number for each entry, in %.

{"compound": "CC1CN(C(=O)C(Cl)Cl)C(C)(C)O1 (stereo not shown) [compound 8]", "target_desc": "Corn", "unit_annotation": "%", "obs_value": 40}

Batch lookup, % Inhibition Corn per entry.
1. O=C(O)COC(c1ccccc1)c1ccccc1 [compound 78]
2. CC1(C)OC(c2ccco2)CN1C(=O)C(Cl)Cl (stereo not shown) [compound 1]
3. O=C(O)COC(c1ccccc1)c1ccccc1 [compound 79]

Reply |
1: 60; 2: 15; 3: 45

###

Test system: Shattercane (SHCA)
Assay type: in vivo
Conditions: Antidote 4.48 + Biocide No. 1 8.96 Kg/Ha PPI, Herb. No. 8 0.07 POE; 13 DAP
endpoint: % Inhibition 13 DAP SHCA (%)
Give bare numbers, in %.

Please review the entries below; each comes with its answer.
{"molecule": "CC1(C)OC(c2ccco2)CN1C(=O)C(Cl)Cl (stereo not drawn)", "unit_annotation": "%", "obs_value": 80}
{"molecule": "CCOC(=O)c1cnoc1-c1ccc(Cl)cc1Cl", "unit_annotation": "%", "obs_value": 75}

Next molecule, please.
// C=CCC(C)(C#N)Sc1ccc(C)cc1 (stereo not drawn) : % Inhibition 13 DAP SHCA value = 85

###

System: Velvetleaf (VELE)
Format: in vivo, Abutilon theophrasti
Conditions: […]; observed 8 days later (Table 32)
For each of the molecules below, state its % Inhibition VELE.
One number for each entry, in %.

{"molecule": "CCOC(=O)CNC(c1ccc(Cl)cc1)c1ccc(Cl)cc1", "% Inhibition VELE (%)": 85}

Please look at the items below and tell me % Inhibition VELE for each one, in order.
1. CC(C)(C#N)OC(=O)COC(c1ccccc1)c1ccccc1
2. CNC(=O)COC(c1ccccc1)c1ccccc1
3. C#CCOC(=O)COC(c1ccccc1)c1ccccc1
4. O=C(COC(c1ccccc1)c1cccc(C(F)(F)F)c1)OCC(F)(F)F (centres unmarked)

Reply |
85
90
90
85

###

Give measured % Inhibition VELE for each item. Keep answers brief.
System: Velvetleaf (VELE)
Assay type: in vivo, Abutilon theophrasti
Details: […]; observed 8 days later (Table 32)
Answers are plain numbers, in %.

// solved cases for % Inhibition VELE follow
{"smi": "CCCOC(=O)COC(c1ccccc1)c1ccccc1", "% Inhibition VELE / %": 85}
{"smi": "CCOC(=O)COC(c1c(C)cccc1C)c1c(C)cccc1C", "% Inhibition VELE / %": 85}
{"smi": "COC(=O)COC(c1ccccc1)c1ccccc1", "% Inhibition VELE / %": 85}
{"smi": "O=C(COC(c1ccccc1)c1ccccc1)OCC(F)(F)F", "% Inhibition VELE / %": 90}

Next item in the queue.
So, N#CCCOC(=O)COC(c1ccccc1)c1ccccc1 ? Its % Inhibition VELE was 85

###

Test system: Velvetleaf (VELE)
Format: in vivo, Abutilon theophrasti
Conditions: […]; observed 9 days later (Table 29)
endpoint: % Inhibition VELE (%)
Answers are plain numbers, in %.

Previously resolved entries follow.
{"molecule": "O=C(C(Cl)Cl)N1CC(c2ccco2)OC1c1ccccc1 (stereo not shown)", "unit_annotation": "%", "% Inhibition VELE": 100}
{"molecule": "CCC1c2ccccc2CCN1C(=O)C(Cl)Cl (stereo not shown)", "unit_annotation": "%", "% Inhibition VELE": 90}
{"molecule": "CC1(C)OC(c2cccs2)CN1C(=O)C(Cl)Cl (stereo not shown)", "unit_annotation": "%", "% Inhibition VELE": 85}

Now for the molecule whose % Inhibition VELE we want.
For reference, reported % Inhibition VELE for CC1(C)OC(c2ccco2)CN1C(=O)C(Cl)Cl (stereo not shown) stands at 90

###

Assign % Inhibition Corn to each entry below.
Test system: Corn
Settings: […]; observed 7 days after POE (Table 36)
Answers are plain numbers, in %.

Below, each entry is followed by its recorded % Inhibition Corn result.
{"compound": "Cc1ccc(SC2(C#N)CC2)cc1C [compound 73]", "obs_value": 70}
{"compound": "CCCCOC(=O)c1sc(Cl)nc1C(F)(F)F [compound 61]", "obs_value": 55}
{"compound": "O=C(O)c1sc(Cl)nc1C(F)(F)F [compound 68]", "obs_value": 65}
{"compound": "CCOC(=O)c1sc(Cl)nc1C(F)(F)F [compound 60]", "obs_value": 60}

Batch request: % Inhibition Corn for each of the following compounds.
1. Cc1csc(=NC(C)c2ccccc2)s1 (stereo not drawn) [compound 69]
2. CCCCCCCCOC(=O)c1sc(Cl)nc1C(F)(F)F [compound 63]

Reply |
1. 50
2. 55

###

Test system: Corn
Settings: […]; observed 7 days after POE (Table 36)
Rule: % Inhibition Corn below 60% gives t, anything at or above gives f.

Solved entries (count: 4):
{"compound": "COC(=O)ON=C(N)COc1cccc2cccnc12", "discrete_label": "t"}
{"compound": "O=C(O)COc1cc(C(F)(F)F)cc(C(F)(F)F)c1", "discrete_label": "t"}
{"compound": "C=CCC(C)(C#N)Sc1ccc(C(C)C)cc1 (centres unmarked)", "discrete_label": "f"}
{"compound": "CCOC(=O)c1sc(I)nc1C(F)(F)F", "discrete_label": "t"}

Ask | API: query returns whether the compound falls strictly under 60% in % Inhibition Corn. Query: [O-][n+]1ccccc1Sc1nc(Cl)c(Cl)c(Cl)c1Cl
Reply | f

Ask | # TODO verify % Inhibition Corn < 60% strictly for this compound: CCOC(=O)c1sc(Br)nc1C(F)(F)F
Reply | t

Ask | Hi there! Is % Inhibition Corn for O=C(O)c1sc(Cl)nc1C(F)(F)F [compound 65] below 60%, do you know?
Reply | t

Ask | A record lists CCCCCCOC(=O)c1sc(Cl)nc1C(F)(F)F . Is its % Inhibition Corn below 60%?
Reply | t

###

Test system: Velvetleaf (VELE)
Assay type: in vivo, Abutilon theophrasti
Conditions: […]; observed 8 days later (Table 32)
endpoint: % Inhibition VELE (%)
Answers are plain numbers, in %.

{"compound": "CCSC(=O)COC(c1ccccc1)c1ccccc1", "unit_annotation": "%", "% Inhibition VELE": 85}
{"compound": "CC(C)(C)OC(=O)COC1c2ccccc2CCc2ccccc21", "unit_annotation": "%", "% Inhibition VELE": 80}
{"compound": "O=C(O)COC(c1ccccc1)c1cccc(C(F)(F)F)c1 (stereo not shown)", "unit_annotation": "%", "% Inhibition VELE": 90}
{"compound": "CCOC(=O)CNC(c1ccc(OC)cc1)c1ccc(OC)cc1", "unit_annotation": "%", "% Inhibition VELE": 85}
{"compound": "O=C(O)COC(c1ccccc1)c1ccccc1", "unit_annotation": "%", "% Inhibition VELE": 85}
{"compound": "O=C(COC(c1ccccc1)c1ccccc1)OCc1ccoc1", "unit_annotation": "%", "% Inhibition VELE": 85}
{"compound": "Cc1cccc(C)c1C(OCC(=O)O)c1c(C)cccc1C", "unit_annotation": "%", "% Inhibition VELE": 85}
{"compound": "O=C(COC(c1ccccc1)c1ccccc1)Oc1ccccc1", "unit_annotation": "%", "% Inhibition VELE": 80}

Below is a list of compounds. For each, state its recorded % Inhibition VELE.
1. O=C(COC(c1ccccc1)c1ccccc1)Oc1cccc([N+](=O)[O-])c1
2. NC(=S)COC(c1ccccc1)c1ccccc1

Reply |
85
90
